Biological target: NLRP3 (Homo sapiens, UniProt Q96P20)
Construct: Seed THP-1 cells (25,000 cells/well) containing 1.0 μg/ml LPS in 40 μl of RPMI medium
Sequence (Q96P20 whole entry): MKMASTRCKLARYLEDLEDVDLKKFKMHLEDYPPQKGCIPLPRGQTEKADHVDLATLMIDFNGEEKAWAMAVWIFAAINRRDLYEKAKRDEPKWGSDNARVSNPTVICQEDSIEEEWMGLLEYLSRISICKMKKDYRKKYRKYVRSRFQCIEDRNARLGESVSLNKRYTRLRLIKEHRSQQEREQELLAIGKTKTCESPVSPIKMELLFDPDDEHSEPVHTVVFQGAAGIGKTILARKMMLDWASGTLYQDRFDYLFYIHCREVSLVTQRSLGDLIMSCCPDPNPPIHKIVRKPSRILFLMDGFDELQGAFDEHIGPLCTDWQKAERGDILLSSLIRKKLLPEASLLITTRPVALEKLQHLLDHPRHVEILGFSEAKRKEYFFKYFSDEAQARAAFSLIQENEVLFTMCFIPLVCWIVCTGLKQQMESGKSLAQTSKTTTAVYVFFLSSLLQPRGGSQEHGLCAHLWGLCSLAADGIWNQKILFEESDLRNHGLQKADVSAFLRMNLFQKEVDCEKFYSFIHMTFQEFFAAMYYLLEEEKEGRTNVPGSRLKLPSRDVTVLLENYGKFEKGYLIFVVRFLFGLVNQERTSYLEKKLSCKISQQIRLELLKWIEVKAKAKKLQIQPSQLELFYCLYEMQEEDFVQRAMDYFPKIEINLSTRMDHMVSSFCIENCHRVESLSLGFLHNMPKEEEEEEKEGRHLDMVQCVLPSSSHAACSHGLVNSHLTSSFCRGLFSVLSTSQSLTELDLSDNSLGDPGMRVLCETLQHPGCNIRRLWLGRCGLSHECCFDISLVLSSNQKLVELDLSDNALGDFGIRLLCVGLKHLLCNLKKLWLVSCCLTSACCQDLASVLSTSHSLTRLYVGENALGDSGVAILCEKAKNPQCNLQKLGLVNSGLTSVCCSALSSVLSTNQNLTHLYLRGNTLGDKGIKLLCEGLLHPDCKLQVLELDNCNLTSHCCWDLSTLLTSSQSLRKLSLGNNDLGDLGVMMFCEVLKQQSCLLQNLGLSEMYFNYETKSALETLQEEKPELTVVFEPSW
Test: THP-1 cells pyroptosis assay
Conditions: LPS 1 μg/ml, compound 3 hrs, nigericin 5 μM 1 hr, resazurin readout
reportedMetric: IC50

[
  {
    "lineNotation": "CC(C)c1cc(F)cc(-c2ccncc2)c1CC(=O)NS(=O)(=O)c1ccc(Cl)cc1",
    "reportedMeasurement": "≤ 5 µM"
  },
  {
    "lineNotation": "COc1cc(-c2cc(F)cc(C(C)C)c2CC(=O)NS(=O)(=O)c2cc(C(C)(C)O)nn2C)ccn1",
    "reportedMeasurement": "≤ 5 µM"
  },
  {
    "lineNotation": "COc1cc(-c2cc(F)cc(C(C)C)c2CC(=O)NS(=O)(=O)c2ccc(C)c(C)c2)ccn1",
    "reportedMeasurement": "≤ 0.5 µM"
  }
]

GET /value?item= CC(C)c1cc(F)cc(-c2ccc(Cl)nc2)c1CC(=O)NS(=O)(=O)c1cc(C(C)(C)O)cs1 &field=IC50 returns ≤ 5 µM

====

Biological target: NLRP3 (Homo sapiens)
Construct: Seed THP-1 cells (25,000 cells/well) containing 1.0 μg/ml LPS in 40 μl of RPMI medium
Experiment: THP-1 cells pyroptosis assay
Conditions: LPS 1 μg/ml, compound 3 hrs, nigericin 5 μM 1 hr, resazurin readout
Protocol: THP-1 cells (ATCC #TIB-202) were grown in RPMI containing L-glutamine (Gibco #11835) supplemented with 1 mM sodium pyruvate (Sigma #S8636) and penicillin (100 units/ml)/streptomycin (0.1 mg/ml) (Sigma #P4333) in 10% Fetal Bovine Serum (FBS) (Sigma #F0804). […] The cells were then counted and viability (>90%) checked by Trypan blue (Sigma #T8154). […] The following method step-by-step assay was followed for compound screening. • 1. […] Plates were read in an Envision reader at Ex 560 nm and Em 590 nm • 9. […]
reportedMetric: IC50

Known results for compounds:
[
  {
    "compound": "COc1cc(-c2cc(F)cc(C(C)C)c2CC(=O)NS(=O)(=O)c2ccc3c(c2)COC3)ccn1 [Example 124]",
    "testTarget": "NLRP3 (Homo sapiens)",
    "IC50": "≤ 0.5 µM"
  },
  {
    "compound": "COc1cc(-c2cc(F)cc(C(C)(C)F)c2CC(=O)NS(=O)(=O)c2ccc(C(C)(C)O)cc2C)ccn1 [Example 86]",
    "testTarget": "NLRP3 (Homo sapiens)",
    "IC50": "≤ 5 µM"
  },
  {
    "compound": "COc1cc(-c2cc(F)cc(C(C)C)c2CC(=O)NS(=O)(=O)c2sccc2C(C)(C)O)ccn1 [Example 8]",
    "testTarget": "NLRP3 (Homo sapiens)",
    "IC50": "≤ 10 µM"
  }
]

Switching to the query record.
GET /value?item= COc1cc(-c2cc(F)cc(C(C)C)c2CC(=O)NS(=O)(=O)c2ccc(C(C)(C)O)nc2)ccn1 [Example 171] &field=IC50 returns ≤ 5 µM

====

Target: NLRP3 (Homo sapiens, UniProt Q96P20)
Construct: Seed THP-1 cells (25,000 cells/well) containing 1.0 μg/ml LPS in 40 μl of RPMI medium
Experiment: THP-1 cells pyroptosis assay
Settings: LPS 1 μg/ml, compound 3 hrs, nigericin 5 μM 1 hr, resazurin readout
reportedMetric: IC50

Known results for compounds:
[
  {
    "lineNotation": "COc1cc(-c2cc(F)cc(C(C)C)c2CC(=O)NS(=O)(=O)c2ccc(NC(C)=O)cc2)ccn1",
    "reportedMeasurement": "≤ 10000 nM"
  },
  {
    "lineNotation": "COc1cc(-c2cc(F)cc(C(C)C)c2CC(=O)NS(=O)(=O)c2cncc(N(C)C)n2)ccn1",
    "reportedMeasurement": "≤ 1000 nM"
  },
  {
    "lineNotation": "CC(C)c1cc(F)cc(-c2cccnc2)c1CC(=O)NS(=O)(=O)c1cc(C(C)(C)O)cs1",
    "reportedMeasurement": "≤ 500 nM"
  },
  {
    "lineNotation": "COc1cc(-c2cc(F)cc(C(C)C)c2CC(=O)NS(=O)(=O)c2cc(C(=O)N(C)C)n(C)n2)ccn1",
    "reportedMeasurement": "≤ 1000 nM"
  },
  {
    "lineNotation": "COc1cc(-c2cc(F)cc(C(C)C)c2CC(=O)NS(=O)(=O)c2ccc(Cl)c(C)c2)ccn1",
    "reportedMeasurement": "≤ 500 nM"
  },
  {
    "lineNotation": "COc1cc(-c2cc(F)cc(C(C)C)c2CC(=O)NS(=O)(=O)c2ccc(C(C)(C)O)cc2)ccn1",
    "reportedMeasurement": "≤ 5000 nM"
  }
]

Switching to the query record.
// assay NLRP3 (Homo sapiens, UniProt Q96P20), entry COc1ccc(-c2cc(F)cc(C(C)C)c2CC(=O)NS(=O)(=O)c2cc(C(C)(C)O)cs2)cn1 , IC50 value = ≤ 500 nM
